# STUDY_TARGET: PARD3_3, Q8TEW0
# Sequence (Q8TEW0 582-685): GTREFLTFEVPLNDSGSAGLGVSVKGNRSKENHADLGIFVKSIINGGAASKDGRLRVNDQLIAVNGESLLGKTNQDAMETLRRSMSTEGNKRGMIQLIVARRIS
# ASSAY: holdup assay
# Design: key: below the threshold = too weak to quantify, mostly under pKd 3.1 to 4
# CONDITION_INFO: plain residues with an end cap or a label only (N-terminal biotin on a linker: ado-ado)
# Lookup of reported pKd keyed by entry
READOUT_LABEL: pKd

>>> experimental_value("QKNKDREYYV [NRXN3, Q9HDB5]")
4.59
>>> experimental_value("DFKHTKSFII [JAM2, P57087]")
4.42
>>> experimental_value("LVEEEEPMNL [HDAC7, Q8WUI4]")
4.23
>>> experimental_value("HDDYFYHDEL [RCN2, Q14257]")
3.96
>>> experimental_value("LLQEEWETVM [PTH1R, Q03431]")
4.33
>>> experimental_value("DSEEELPTRL [GRK6, P43250]")
4.09
>>> experimental_value("GDSSRKEYFI [GYPC, P04921]")
4.9
>>> experimental_value("VCMGDHWFDV [PRKN, O60260]")
4.25
>>> experimental_value("GQNMTVSVVI [PRLHR, P49683]")
4.1
>>> experimental_value("STYCDYTIEI [FAM71C, Q8NEG0]")
5.15
>>> experimental_value("EFKQTSSFLV [JAM1, Q9Y624]")
3.75
>>> experimental_value("IQISELETNV [SLC1A7, O00341]")
3.68
>>> experimental_value("PLPPEEESWV [GAS2L2, Q8NHY3]")
4.75
>>> experimental_value("FLVTEFNVML [DFNB31, Q9P202]")
4.49
